Where a name gives a salt, the structure may show the parent alone.

| MOLECULE | melting point |
| --- | --- |
| Cc1cccc(C)c1C(=Nc1ccc(F)cc1)NC(=NC1CC1)N1CCCCC1C (stereo not shown) (as salt: hydrochloride) [Example 103] | 219 to 220 °C |
| Cc1ccccc1C(=Nc1ccc(F)cc1)NC(=NC1CCCCC1)C1(C)CCCCC1 (as salt: hydrochloride) [Example 96] | 127 to 129 °C |
| Fc1ccc(NC(=CC(=NC2CC2)N2CCCCO2)c2ccccc2)cc1 (as salt: nitrate) [Example 110] | 82 to 84 °C |
| Cc1ccccc1C(=Nc1ccc(F)cc1)NC(=NC1CC1)C1(C)CCCCC1 (as salt: hydrochloride) [Example 106] | 205 to 207 °C |
| Cc1cccc(C)c1C(=NC(=Nc1ccccc1)N1CCCCO1)Nc1ccc(F)cc1 (as salt: hydrochloride) [Example 61] | 212 to 214 °C (dec.) |
| CC1CCN(C(=Nc2ccccc2)NC(=Nc2ccccc2)c2ccccc2)CC1 (as salt: hydroiodid) [Example 21] | 192 to 195 °C (dec.) |
| Cc1ccccc1C(=Nc1ccccc1)NC(=Nc1ccccc1)N1CCC(O)CC1 (as salt: hydrochloride) [Example 24] | 218 to 220 °C |

====

Structures can show the parent of a compound that is named as a salt.
Recorded melting point for the following compounds

| COMPOUND | melting point |
| --- | --- |
| Cc1cccc(C)c1C(=NC(=Nc1ccc(F)cc1)N1CCCCO1)Nc1ccc(F)cc1 (as salt: hydrochloride) | 213 to 214 °C |
| Cc1cccc(C)c1C(=NC(=Nc1cccnc1)N1CCCCC1C)Nc1ccc(F)cc1 (stereo not shown) (as salt: hydrochloride) | 207 to 210 °C |
| Cc1ccccc1C(=NC(=Nc1ccccc1)N1CCCCC1C)Nc1ccc(F)cc1 (stereo not shown) (as salt: hydrochloride) | 173 to 175 °C |
| CC1CCCCN1C(N=C(Nc1ccc(F)cc1)c1c(F)cccc1F)=Nc1ccc(F)cc1 (stereo not shown) (as salt: nitrate) | 171 to 173 °C |
| CC1CCCCN1C(=Nc1ccccc1)NC(=Nc1ccc(F)cc1)c1ccccc1Cl (stereo not shown) (as salt: hydrochloride) | 145 to 147 °C |
| Cc1ccccc1C(=NC(=Nc1ccccc1)N1CCC(=O)CC1)Nc1ccc(F)cc1 (as salt: hydrochloride) | 234 to 235 °C |
| COc1ccc(NC(=NC(=Nc2ccccc2)N2CCCCO2)c2c(C)cccc2C)cc1 (as salt: hydrochloride) | 214 to 215 °C |

====

Where a name gives a salt, the structure may show the parent alone.

| MOLECULE | melting point |
| --- | --- |
| Cc1cccc(C)c1C(=Nc1ccc(F)cc1)NC(=Nc1ccc(Cl)cc1)N1CCCCC1C (stereo not shown) (as salt: hydrochloride) | 149 to 151 °C (dec.) |
| Cc1ccccc1C(=Nc1ccc(F)cc1)NC(=Nc1ccccc1Cl)N1CCCCC1C (stereo not shown) (as salt: hydrochloride) | 208 to 210 °C |
| Cc1ccccc1C(=NC(=Nc1ccccc1)N1CCC(=O)CC1C)Nc1ccc(F)cc1 (stereo not shown) (as salt: hydrochloride) | > 143 °C |
| c1ccc(N=C(NC(=Nc2ccccc2)N2CCCCO2)c2ccccc2)cc1 (as salt: nitrate) | 187 to 190 °C |
